Tested on: ACHN renal
Assay: NCI tumour cell line growth inhibition, 48 h
Recorded TGI for the following compounds

| Compound | TGI |
| --- | --- |
| CC(C)C[C@H](NC(=O)CCn1ccc2ccccc2c1=O)B(O)O | > 100 µM |
| O=C(O)c1ccccc1N=Nc1c(O)c(S(=O)(=O)O)cc2cc(S(=O)(=O)O)ccc12 | > 100 µM |
| O=C(CN1N=C(c2ccc(F)cc2)CCC1=O)Nc1nc2ccccc2s1 | > 100 µM |
| COC(=O)C1CCC(=O)N1C(c1ccc2c(c1)OCO2)c1cc(OC)c(OC)c(OC)c1 (stereo not drawn) | > 100 µM |
| C=CCC1(C)CCCN(Cc2ccccc2)C1=O (stereo not drawn) | > 10 µM |
| Fc1cccc(F)c1C(Nc1nncs1)Nc1nncs1 | > 100 µM |
| CCOC(=O)C1Nc2ccccc2[C@H]2OCC[C@@H]12 (stereo partly drawn) | > 100 µM |
| Nc1ccc(Nc2cc(=O)[nH]c(=O)[nH]2)cc1Cl | > 100 µM |
| COc1cc(C2(C)SCCCS2)cc(OC)c1OC | > 100 µM |
| O=Cc1ccc2c(c1I)OCO2 | > 100 µM |
| COc1cccc(/N=N/C(=NNC(=O)c2ccc(C)cc2)c2ccc(N(C)C)cc2)c1 | > 100 µM |
| N#Cc1nc(C#N)n(S(=O)(=O)c2ccccc2)c1NS(=O)(=O)c1ccccc1 | > 100 µM |
| NC(N)=NCCC(O)(P(=O)(O)O)P(=O)(O)O | > 100 µM |
| CCOC(=O)C1CCCCN1C(=O)Cc1c[nH]c2ccccc12 (stereo not drawn) | > 100 µM |
| CC(C)(C)NC(=O)CCC1C(C(=O)NC(C)(C)C)C2(Cl)C(Cl)=C(Cl)C1(Cl)C2(Cl)Cl (stereo not drawn) | > 100 µM |
| Cc1cc(C)c(C2CNCc3cc4c(cc32)CNCC4c2c(C)cc(C)cc2C)c(C)c1 (stereo not drawn) | 13.4 µg/mL |
| CCc1c(C)nc2sc3c(N)ncnc3c2c1C | > 25 µM |
| O=[N+]([O-])c1ccc(C(O)(C#CCN2CCCC2)c2ccccc2)cc1 (stereo not drawn) | > 100 µM |
| O=C(c1ccccc1)c1c(CC(O)c2ccncc2)n(C(=O)c2ccccc2)c2ccccc12 (stereo not drawn) | 67.5 µM |
| Cn1c(=O)n2n(c1=O)C(C)(C13CC4CC(CC(C4)C1)C3)C13CC4CC(CC1C4)CC23 (stereo not drawn) | > 100 µM |
| O=C(NNS(=O)(=O)c1ccc(Cl)cc1Cl)c1cccnc1Nc1ccc(Cl)cc1 | 93.5 µM |
| CCOC(=O)/C(I)=C/c1cc(OC)c(OC)c(OC)c1 | 28.2 µM |
| NNc1nnc(-c2nnc(NN)o2)o1 | > 10 µM |
